FYI, the data here is from a melting point compilation (Tetko et al.; mined from patent text by program, amines drawn as free bases though some values may be those of a salt).

Measured melting point of individual entries
readoutKind: melting point

> print(dat)
                                    compound          value
 1           Oc1ccc2oc(-c3ccc(O)c(F)c3)nc2c1  262 to 268 °C
 2         O=C1C2=C(NC3(C=N2)OCCO3)c2ccccc21  296 to 298 °C
 3                  CSc1nc(O)c(C(N)=O)c(O)n1       > 360 °C
 4  COC(=O)N=C(NC(=O)OC)Nc1ccc(SCC(C)C)cc1NC(=O)CSC  138 to 140 °C
 5  CCOC(=O)/C=C/c1cn(-c2ccccc2)nc1OCc1ccc(OCc2nc(-c3ccccc3)oc2C)cc1  154 to 155 °C
 6                 COCc1cc(O)c2nc(C)c(C)n2c1  164 to 165 °C
 7  O=C(O)c1cn(CC(F)(F)F)c2c(F)c(F)c(F)cc2c1=O  205 to 207 °C
 8             Clc1c(NC2=NCCO2)ccc2[nH]ncc12  223 to 225 °C
 9  Fc1ccc(N2CCN(CCCc3[nH]nc4c3CCCC4)CC2)cc1  106 to 108 °C
10  NC(=O)c1ccc(-c2ccc3nnn(Cc4ccc5ncccc5c4)c3n2)cc1C(F)(F)F  230 to 232 °C
11  COC(=O)NC1=NC(c2cccc(O)c2)CN1 (configuration not stated)  180 to 183 °C
12  Cc1nccn1CCCCc1ccc(OCc2coc(/C=C/c3ccccc3)n2)cc1  122 to 123 °C
13  CC(=O)c1cc2c(s1)SCCN(CCCCN1CCN(c3ncccn3)CC1)C2=O  118 to 120 °C
14  c1ccc2c(c1)[nH]c1cnc(-c3nc(C4CC4)no3)cc12  256 to 257 °C
15   O=C(c1ccc(Cl)c(Cl)c1)N1CCCC(c2cccs2)=N1  124 to 125 °C
16  COC(=O)c1cnccc1NC(=O)C(C)CS (configuration not stated)    54 to 56 °C
17   CCCCSc1cn(C)cc(-c2cccc(C(F)(F)F)c2)c1=O  109 to 110 °C
18  O=C(N[C@H]1CC[C@H](CCN2CCC(c3cccc4c3CCO4)CC2)CC1)c1ccc(-n2cccc2)cc1         228 °C
19  O=C1OC(CN2CCC(O)(c3ccc(Cl)cc3)CC2)CN1c1ccccc1 (configuration not stated)  139 to 140 °C
20  COc1cc(Nc2c(C#N)cnc3ccc(-c4csc(C=O)c4)cc23)c(Cl)cc1Cl  233 to 237 °C
21  C=CCOc1ccc(C(=O)Oc2ccc(O[Si](C)(C)C)cc2)cc1          87 °C
22  CN1CC2Cc3ccc(Cl)cc3C(C)(O)C2C1 (configuration not stated)  125 to 130 °C
